Biological target: T1, RAPGEF6, Q8TEU7
T1 sequence (Q8TEU7 525-625, limits assumed, looked up): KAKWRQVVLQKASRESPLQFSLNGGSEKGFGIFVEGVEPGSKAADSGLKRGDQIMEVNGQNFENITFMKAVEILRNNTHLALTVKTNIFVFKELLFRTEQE
Experiment: holdup assay
Design: key: below the threshold = too weak to quantify, mostly under pKd 3.1 to 4
Conditions: plain residues with an end cap or a label only (N-terminal biotin on a linker: ado-ado)
ENDPOINT NAME: pKd

Consider the reported pKd for these binders:
>>> print(df.to_string())
                                 binder  endpoint_name      observed_result
0          VYEVPVETKF [SLC26A3, P40879]            pKd  below the threshold
1            YAEKRMLTEV [KCNA6, P17658]            pKd                 3.48
2            KEKASTETEC [TRPM1, Q7Z4N2]            pKd  below the threshold
3  VKQYADVEGF [HNRNPK, P61978;P61978-2]            pKd  below the threshold
4             RDYTQSSSSL [GRM5, P41594]            pKd  below the threshold

I'd like to know its pKd. The binder in question is KSRPENGTVC [TMEM178B, H3BS89]
below the threshold

Another binder to look at: QRYPGNQTTC [CCL24, O00175]
3.58

Please do the same for TNSKQGETTV [FZD1, Q9UP38] as well.
3.54

Continue with PSVYSRSQYV [CLDN8, P56748]
below the threshold

Also need HDDYFYHDEL [RCN2, Q14257] , thanks.
below the threshold

Item: GDSSRKEYFI [GYPC, P04921]
below the threshold
